PROTOCOL DETAILS: label from the status in PepcDB records;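 note: failed if final PepcDB status was selected cloned or expressed and not failed if soluble or beyond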
OUTCOME MEASURE: protein production

These solved cases illustrate the format of a correct answer.
SEQUENCE RECORD	REPORTED RESULT
DGKLYTLNYGKVSSIALDPIEKKPLFHFWPGSCAFSIGTVGCNMHCKHCQNWEISQADESFPYLQDATPESIVRLARHYECESIAYTYNEPTIWYEFVLDTAKLAKKEGLNNILVTNGYINEEPFRELAKYIDAMNIDIKAFNDKFYMKISSVPSGEPSRRTAVIAKKEFGIHVELTYLIIPTLNDNEEEIRRFARWVVEELGDDTPVHFSRFFPHYKLLNLPPTPIQTLEKAYKIAKEEGLKFVYLGNVPGHEGENTYCPRCGKLLIERWGFEILRYEIKDGKCKY	failed
MTVDSNTSSGRGNDPEQIDLIELLLQLWRGKMTIIVAVIIAILLAVGYLMIAKEKWTSTAIITQPDAAQVATYTNALNVLYGGNAPKISEVQANFISRFSSAFSALSEVLDNQKEREKLTIEQSVKGQALPLSVSYVSTTAEGAQRRLAEYIQQVDEEVAKELEVDLKDNITLQTKTLQESLETQEVVAQEQKDLRIKQIEEALRYADEAKITQPQIQQTQDVTQDTMFLLGSDALKSMIQNEATRPLVFSPAYYQTKQTLLDIKNLKVTADTVHVYRYVMKPTLPVRRDSPKTAITLVLAVLLGGMIGAGIVLGRNALRSYKPKAL	not failed
MNQRDVILDCEKKLLTAIQNNDVESLEVLLHDDLLFIIPSGETVTKETDIAAYSSGKIALRAVVPSDYIIRIIHDTVVVSVNIEIKGEYMEHTLDNTFRYLRVWKLFDGNWKVIAGSCTAIG	not failed
MCGVELDSLISQVKDLLPDLGEGFILACLEYYHYDPEQVINNILEERLAPTLSQLDRNLDREMN	not failed
MRDMEFIEWYPRGYGVAFKVKRKILEEQSEYQKIEVYETEGFGKLLAIDGTVQLVTEGEKSYHEPLVHPAMLAHPNPRRVLIIGGGDGGAIREVLKHEEVEEVIMVEIDKKVIEISAKYIGIDGGILEKMLSDKHEKGKLIIGDGVKFIEENSGFDVIIVDSTDPVGPAEMLFSEEFYKNAYRALNDPGIYVTQAGSVYLFTDEFLTAYRKMRKVFDKVYYYSFPVIGYASPWAFLVGVKGSIDFMKVDAEKGKKLGLEYYDPDKHETLFQMPRYIVQML	not failed

Please look up its protein production: MTINPRDYDLDELRKMARQRGNGMGDEDVPDPTDLDMGLDDADEEVLAGSSFRSGLYRELLPFLSGDAQEKPYLEALPETYAAEFVVFEWLEFLLMHSGYKGADEALDYYRSIDWLTEDVQDDLSDYLLGIDESATNDDNELSVDDHMLSLVYIAKLTAMT failed

Please look up its protein production: MSEVLTRGFRFRPADEEVTDYLMRKTQSPEFSCFIKTIDLYDKDPWVLGHVRDPCYNHYEWYYFVKKNPLGNEYLDKPRLNGFEHPRLKWDVLKQIHDALSSGQNVPPSVFTYGFRFHPTDQELLSLYLTPKAHSPDFSCFIRERESYMPWSHGFLNMLDLLFTRTVNGTTL failed

----------
PROTOCOL DETAILS: label from the status in PepcDB records
OUTCOME MEASURE: protein production

SEQUENCE RECORD	OUTCOME MEASURE	REPORTED RESULT
DDANVVRDRDLEVDTTLKSLSQQIENIRSPEGSRKNPARTCRDLKMCHSDWKSGEYWIDPNQGCNLDAIKVFCNMETGETCVYPTQPSVAQKNWYISKNPKDKRHVWFGESMTDGFQFEYGGQGSDPADVAIQLTFLRLMSTEASQNITYHCKNSVAYMDQQTGNLKKALLLKGSNEIEIRAEGNSRFTYSVTVDGCTSHTGAWGKTVIEYKTTKSSRLPIIDVAPLDVGAPDQEFGFDVGPVCFL	protein production	failed
MTQYTHIRNATGKLTIKNTTFLIDPFLAPKDTYPGFEGTFNYQQRMPMVDLPLSMDDLLSNVTAVVVTHTHLDHWDDTAINSIPKSLPIFVQNTADKELITSQGFIDVRIIFESLEFNGITLRKTGGSHGTVEMYANPVLAPLAGDAMGVIFEAADEPTVYLVGDTVWTSDVEKALLRFDPNVIIMNTGYAQILGFEDSIIMGTKDIGRMVVRKPEAKIIAVHMDTVNHTATSRKDVRKFIKGNNIESHVAVPEDGETITL	protein production	not failed
MFREFINLLFMQFKMIKAYLPVFIFFSILFPLGFIFSFGTIIQRTLSTYLISGSITFFISINSIISVAQNLALERSSGRFSLMIASGIPIQLYAISITISNGIQTLMLIPVFLVLGYFLLGVRISSALFFVLSIIGSIYMASMVGLLIGTAIRNLHAVNQWSSIIGFILSFFAPVYFPLTQIPLPFRYLAYLEPTTYVSQSTYFALVGNPISLAWFGGTVVIGFLFSFLSSLLMKKAF	protein production	failed
EHGLLVHKAVDKWTTEEVVLWLEQLGPWASLYRDRFLSERVNGRLLLTLTEEEFSRAPYTIENSSHRRVILTELERVR	protein production	not failed

Please look up its protein production: MKNYLQILRETLKAMLSKPMWLMVVASVCITSLPYMNHTALDLPVAVVDEDHSDVSRELVRLLDSAPKVAVVGYDSLPQAKRDLAWRKLYAIIVIPLNFEKRLLRGEALVIPYFGDATNRMANGQIQQDISAVYSALTNRYNAALLEREGFTATQAQVVLSPLVGQLTDLFNPGISFAAIVLPGLLSLILQHSLLLGCTRGNIMLRGGTPRYMRQPLSTRFGRYSAQLLIWTVLAMLFYVIWPHLLGYRQSASFFMLLGIVLPFLIAVIALSEFIAELLPTEESVYLTMTFITLPLFYMAGYSWPEQAMPDWVRWLADAIPSTWAIRAIAEMNQMDLPLREVSDHALVLLGMAATYALLGTLLYQYRNWRWDNVKGW failed

Please look up its protein production: MVPDYFSASEWTIIADVLGANSRHLFELYALKQSNHYQSLMGSKAGTFEDIVDAYLAYLQVAVVNPAMDKALLRLQRYATDVRKGSIPYEKLRFGASWRHPPQTEDPTQNSEWAKIQLMDFVQALVNTEFAVGILYTQRDPSFFRPISQGIKRCLVRWNVDEISVSCARTHVGLRFYREVENIKGRCFCCRQGLTFSKITLRRDVGGKNLQLQNGVIVTTDRSSLQRLKQKPDLIYGIWERPHGFNLRSVQENNEHNN failed

Please look up its protein production: MAYEERRSSILDSFSLSPLPYPVLLILAVASVFLLSSWYFSLEEAAESAEEQINFALLLIPLFLIVLVRWLSSMENPDALLGMFSSSRRTTYVSPGAGGDGGSSPWGVAALIVLLLVLLQYQSSFLEMWSG failed

----------
PROTOCOL DETAILS: label from the status in PepcDB records

SEQUENCE RECORD	protein production
MINFFDLFLSDFLTSLRLFCKVWDEQTTLQALLEHVRAIPGHCQKKILTKLLVTDIWDKEDTKLLAALKHIDVRPTRVACRPSLQVLGLYNDVVTVFQTHGMGWYREIDEDVYPKLVKEFIATCRLTYANPENPKASQGTLTFFLNKKHYNKTMFEIYDMYGFTKGEAVEFSKLSPTHITSLLSTTNPVFEHNEQYLVPDPSKTVPRRRRTAEAQPTDEHVISNDEIYEDYAYPTSLAHAQPYLLLPEDPTPYRVSPPPAGDDISQQMAWMIALTRKNNSMMHKMWRAISRIRPCVCTRRGGVDDANRENQSKTIEDRHAERLVPAAGPSGASTSQPPPEHSQAVA	not failed
MSELTAFGHSLSSGYEVVVIKPQSLSDTTLIVQALRADKAVILNLEHLDVAEAQRISDFAAGSTYAINGHQSRLGDGVFLFTPNVINIQERTAVPTPAGLV	failed
GHMAIQRRIRRVKTVQMTTNSPIHRSGSVLEPGNWQEYDPFLLLMEDIFERGTFDVHPHRGIETVTYVISGELEHFDSKAGHSTLGPGDVQWMTAGRGVVHKEDPASGSTVHSLQLWVNLPSAYKMTEPRYQNLRSKDMPVRKEEGATIRVFSGSSKGVKAPTKNIVPVTMVEMIVEPGTTVVQDLPGHYNGFLYILEGSGVFGADNIEGKAGQALFFSRHNRGEETELNVTAREKLRLLLYAGEPVNEPVVAYGPFVMNTPEQIREAIRDYQEGRFGR	not failed
MAVGKKDIECPPYAEGTPLSDADIKEKRVTYVEDHPDIRYSWTAGQAISKFLNGLKEGKILGVKCNKCGRVMVPPRMFCELCYKPIDGWVELKDTGTVETFSISYIDPDARPLPEPVIVAVISIDGASPHMGIMHILDEVKPEDVYIGMKVKAVWKSEEEREGAITDIKYWKPLEGLEHHHHHH	failed

----------
PROTOCOL DETAILS: label from the status in PepcDB records

SEQUENCE RECORD	protein production
MEIQIVTGFLGAGKTTFLNRYLPLLSGKTVVIENEFGDIGIDGDRIQEDIPVREIFAGCICCSLAMDFRKGIKEIAENFHPDRILIEPSGVGRLTDIVKACQMAREREKVSLQITKLIAIVDMASFEEYIEGFGAFYQDQIERAGLLLLSHVEAENKAQKEIIIGRLKELNPDAILYDGDWRQLENEELLKLLEEAPDYDEDARRDAAFAALPADKVFSSVSFMDLPQMRIEDLEAIMKALEKEEYGYILRAKGWIETMEKGLVHFDFTPTVSKYREEKNPAGTGGEAVVIGCGLNQAALEMLFRRKNILEHHHHHH	not failed
MAESTRIGQESRVTLHFALKLEDGNVVDSTFDKQPASFKVGDGNLLPGFEQALFGLKAGDKRTLSILPEQGFGQPNPQNVQIMPRDQFQDMELAEGLLVIFNDAAKTELPGVVKAFDEQQVTVDFNHPLAGKTLAFEVEIIDVQPA	failed
MSKIAIIVDSSSYIPKDQLKKHHIYVIDNPIIFGETIYHEFNWPVNADFYQQMATTPIQPTTSQPAPGDFEAAFQAAKDDGYKQALVITLSSGFSGTFLNTSAIASSHSDIDIHVWDSRIACLGAGNQALLAAYLAEKGIGIDEILSKLQILRSRTGVFFVVDSISHLQRTGRLSGGQALVAGLLNIKPILNINTNKQGKIDAVAKTRKMSGAWRYIEKHFAKIADNYQRAGWPMRVSILDADNPELADAWLKRAEKRWPEIIFERGIIGPLVGVHIGGKAVGLIWAEDYKRLED	failed
MATSGFKHLVVVKFKEDTKVDEILKGLENLVSQIDTVKSFEWGEDKESHDMLRQGFTHAFSMTFENKDGYVAFTSHPLHVEFSAAFTAVIDKIVLLDFPVAAVKSSVVATP	not failed

Data provenance is a protein production outcome set (Wang et al. 2014).
